- ASSAYED_TARGET: UniProtKB P51679
- Sequence (P51679 whole entry): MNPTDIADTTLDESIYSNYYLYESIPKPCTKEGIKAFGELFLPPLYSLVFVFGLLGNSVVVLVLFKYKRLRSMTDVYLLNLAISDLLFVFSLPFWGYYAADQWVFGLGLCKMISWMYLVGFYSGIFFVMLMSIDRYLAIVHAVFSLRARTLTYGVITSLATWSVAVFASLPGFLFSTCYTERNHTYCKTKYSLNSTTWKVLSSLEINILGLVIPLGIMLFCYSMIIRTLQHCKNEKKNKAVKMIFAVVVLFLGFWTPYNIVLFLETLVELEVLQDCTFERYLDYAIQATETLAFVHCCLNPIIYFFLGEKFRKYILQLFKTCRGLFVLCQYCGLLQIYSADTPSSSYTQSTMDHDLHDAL
- Type: cell membranes, Membrane
- CONDITION_NOTES: chem-1; further: in other assays of this panel Not Active means under 50% inhibition at 10 µM
MEASURE_NAME: IC50

### Prompt Item O=C(Nc1ccc(Br)cc1)c1cc(Br)cc(Br)c1O has what recorded IC50?
### Response Not Active

### Prompt Same again, this time with CC(C)=CCC/C(C)=C/CO
### Response Not Active

### Prompt Cc1cc2c(OCC(CNC(C)(C)C)OC(=O)c3ccccc3)cccc2[nH]1 (centres undefined) , same question.
### Response Not Active

### Prompt One more compound: C[C@H]1O[C@@H](n2cc(F)c(=O)[nH]c2=O)[C@H](O)[C@@H]1O
### Response Not Active

### Prompt And then CO[C@H]1/C=C/O[C@@]2(C)Oc3c(C)c(O)c4c(O)c(c(/C=N/N5CCN(C6CCCC6)CC5)c(O)c4c3C2=O)NC(=O)/C(C)=C\C=C\[C@H](C)[C@H](O)[C@@H](C)[C@@H](O)[C@@H](C)[C@H](OC(C)=O)[C@@H]1C , what is it?
### Response Not Active

### Prompt Also, COc1ccc2cc3[n+](cc2c1OC)CCc1cc2c(cc1-3)OCO2.[Cl-] [BERBERINE CHLORIDE] please.
### Response Not Active

### Prompt # repeat for CC(C)NCC(O)c1ccc(NS(C)(=O)=O)cc1 (centres undefined)
### Response Not Active

### Prompt Entry CS(=O)(=O)c1ccc([C@@H](O)[C@@H](CO)NC(=O)C(Cl)Cl)cc1 please
### Response Not Active

### Prompt Now consider CC(C)Cc1ccc([C@@H](C)C(=O)O)cc1 [(R)-IBUPROPHEN] .
### Response Not Active

### Prompt Try the compound C[C@@H](CO)NC(=O)[C@@H]1C=C2c3cccc4[nH]cc(c34)C[C@H]2N(C)C1
### Response Not Active

New cases:
### Prompt Record request: IC50 value, item Nc1ccn([C@@H]2O[C@H](CO)[C@@H](O)C2(F)F)c(=O)n1
### Response Not Active

### Prompt Check Oc1cccc(O)c1O too.
### Response Not Active

### Prompt Continue with CC(C)NCC(O)COc1cccc2[nH]ccc12 (centres undefined)
### Response Not Active

### Prompt Entry CCN(CC)CCNC(=O)c1cc(S(C)(=O)=O)ccc1OC [TIAPRIDE] please
### Response Not Active

### Prompt Would you kindly repeat that for COc1cc(N)c(Cl)cc1C(=O)NC1CCN(CCCOc2ccc(F)cc2)CC1OC (centres undefined) [CISAPRIDE] ?
### Response Not Active
